- experimental.target: T1, human L1CAM on cells (human, UniProt P32004 20-1257)
- T1 construct: Overexpressed on stably transfected HEK293T cells or endogenous on MCF-7 and MDA-MB-231 cells; also called HEK293T-hL1CAM
- T1 sequence (P32004 20-1257): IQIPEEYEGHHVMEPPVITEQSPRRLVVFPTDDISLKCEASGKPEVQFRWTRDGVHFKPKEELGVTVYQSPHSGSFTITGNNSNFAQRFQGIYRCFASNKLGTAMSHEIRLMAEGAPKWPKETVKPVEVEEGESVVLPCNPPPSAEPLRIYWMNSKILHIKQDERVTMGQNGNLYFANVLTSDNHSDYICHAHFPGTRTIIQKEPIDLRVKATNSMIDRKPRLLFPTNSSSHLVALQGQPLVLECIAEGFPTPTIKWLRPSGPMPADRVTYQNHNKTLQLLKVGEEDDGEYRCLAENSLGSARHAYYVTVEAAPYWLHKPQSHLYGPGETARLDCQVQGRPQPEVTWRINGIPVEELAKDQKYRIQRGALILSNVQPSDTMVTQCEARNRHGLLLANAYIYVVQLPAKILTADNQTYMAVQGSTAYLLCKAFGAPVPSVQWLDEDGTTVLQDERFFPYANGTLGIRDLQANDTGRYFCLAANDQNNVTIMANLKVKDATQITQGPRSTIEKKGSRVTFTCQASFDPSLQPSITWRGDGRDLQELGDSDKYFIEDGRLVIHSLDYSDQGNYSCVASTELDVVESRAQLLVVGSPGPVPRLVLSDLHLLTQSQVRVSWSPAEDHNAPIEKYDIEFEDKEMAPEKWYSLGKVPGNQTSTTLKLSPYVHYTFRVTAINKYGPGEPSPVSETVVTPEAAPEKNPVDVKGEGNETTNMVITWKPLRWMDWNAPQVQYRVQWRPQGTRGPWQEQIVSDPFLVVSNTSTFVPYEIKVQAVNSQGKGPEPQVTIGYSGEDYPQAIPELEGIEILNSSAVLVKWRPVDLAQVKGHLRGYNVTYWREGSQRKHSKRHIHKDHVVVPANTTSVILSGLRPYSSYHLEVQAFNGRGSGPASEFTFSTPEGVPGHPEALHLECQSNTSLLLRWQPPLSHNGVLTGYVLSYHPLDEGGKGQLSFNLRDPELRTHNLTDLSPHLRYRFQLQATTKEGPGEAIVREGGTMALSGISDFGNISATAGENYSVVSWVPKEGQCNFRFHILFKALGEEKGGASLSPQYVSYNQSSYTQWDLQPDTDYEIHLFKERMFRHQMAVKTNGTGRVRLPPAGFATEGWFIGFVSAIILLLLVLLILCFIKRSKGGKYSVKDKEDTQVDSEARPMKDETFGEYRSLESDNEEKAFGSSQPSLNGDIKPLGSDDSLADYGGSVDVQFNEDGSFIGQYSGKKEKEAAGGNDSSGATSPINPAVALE
- experiment.summary: flow cytometry, MCF-7 cells
measurement.label: pEC50
// field semantics: pEC50 = negative decimal log of concentration (mol/L)

# binder 13G04 (antibody, V domains shown, mAb from AlivaMab mice, purified from hybridoma supernatant) VH: QVQLVQSGAEVKKPGASVKVSCKASGYTFIGYYLHWVRQAPGQGLEWMGWINPNSGGTNSAQKFQGRVTMTRDTSISTTYMDLSRLRSDDTAVYYCARGGLERRDAFDIWGQGTLVTVSS VL: DIQMTQSPSTLSASVGDRVTITCRASQSISNWLAWYQQKPGKAPNLLIYKASSLESGVPSRFSGSGSGTEFTLTISSLQPDDFATYYCQQYDTYRTFGQGTKVEIK ; its pEC50 = 8.32

# binder 143G03 (antibody, V domains shown, mAb from wild-type mice; also called 143G03 WT; murine 143G03 mAb) VH: QVQLRQSGAELVRPGTSVKMSCKASGYTFTNYYIHWVKQRPGQGLEWIGKIGPGSGSPYYNGMFKDKATLTVDTSSSTAYMQLSSLTSEDSAVYFCARWLLPFDYWGQGTTLTVSS VL: QIVLSQSPGILSASPGEKVTMTCRASSSVNYMHWYQQKSGSSPKPWIFATSILASGVPPRFSGSGSGTSYSLTISSVEAEDTATYYCQQFSSDPLTFGAGTKLELK ; its pEC50 = 9.46

# binder 13F04 (antibody, V domains shown, mAb from wild-type mice, purified from the supernatant of a hybridoma clone; also called L1CAM mAb 13F04) VH: QVQLQQPGAELVKPGASVKLSCKASGYIFISYWMHWVKQRPGQGLEWIGEINPRNGRTNYNEKFKSKATLTVDKSSSTAYMQLTSLTSEDSAVYYCARGGDYGGSFDYWGQGTTLTVSS VL: DIVLTQSPASLAVSLGQRATISCRASESVDSYGNSFMHWYQQKPGQPPKLLIYRASNLESGIPARFSGSGSRTDFTLTVNPVEADDVATYYCQQSNEDPWTFGGGTKLEIK ; its pEC50 = 8.92

# binder 14A10 (antibody, V domains shown, mAb from AlivaMab mice) VH: EVQMVESGGGLVQPGGSLRLSCAAPGFIFSSYNMNWVRQAPGKGLEWVSYISSSSSTTYYADSVKGRFTISRDNAKNSLYLQMNSLRDEDTAVYYCASLYSGYDYYYYYGMDVWGQGTTVTVSS VL: DIVMTQTPLSSPVSLGQPASISCRSSQSLVHSDGNTYLSWLQQRPGQPPRVLIYKISKRFSGVPDRFSGSGAGTDFTLKISRVEAEDVGVYYCMQATQFPFTFGPGTKVDIK ; its pEC50 = 8.28
